test system: COR-L 105; assay: relative viability (nuclei count vs DMSO), 5 days (fraction); higher = more cells survive; conditions: first compound 6.325 µM
Could you please report measured relative viability for the items listed next?
Lab note: record just the number, no unit beside it.

Asked: Which relative viability is reported for this compound? COCC1(CO)C(=O)C2CCN1CC2 (configuration not stated) [PRIMA-1MET] + C[C@]1(O)C[C@@H](c2nc(-c3ccc4ccc(-c5ccccc5)nc4c3)c3c(N)nccn32)C1 [Linsitinib] (partner 1 µM)
Given back: 0.859

Asked: Repeat for the following compound: COCC1(CO)C(=O)C2CCN1CC2 (configuration not stated) [PRIMA-1MET] + N=C(N)NC(=N)NCCc1ccccc1 [Phenformin] (partner 250 µM)
Given back: 0.459

Asked: What about this compound? COCC1(CO)C(=O)C2CCN1CC2 (configuration not stated) [PRIMA-1MET] + O=C(CCCCCCC(=O)Nc1ccccc1)NO [Vorinostat] (partner 1 µM)
Given back: 0.771

Asked: Quick one: COCC1(CO)C(=O)C2CCN1CC2 (configuration not stated) [PRIMA-1MET] + Nc1nc2[nH]cc(CCc3ccc(C(=O)N[C@@H](CCC(=O)O)C(=O)O)cc3)c2c(=O)[nH]1 [Pemetrexed] (partner 0.2 µM)
Given back: 1.1

Asked: Now the compound COCC1(CO)C(=O)C2CCN1CC2 (configuration not stated) [PRIMA-1MET] + CC(C)C[C@H](NC(=O)[C@H](Cc1ccccc1)NC(=O)c1cnccn1)B(O)O [Bortezomib] (partner 0.002 µM)
Given back: 0.715

Asked: Would you mind doing COCC1(CO)C(=O)C2CCN1CC2 (configuration not stated) [PRIMA-1MET] + COc1cccc2cc(-c3nc([C@H]4CC[C@H](C(=O)O)CC4)n4ncnc(N)c34)[nH]c12 [OSI-027] (partner 0.5 µM) as well?
Given back: 0.662

Asked: Next record, please: COCC1(CO)C(=O)C2CCN1CC2 (configuration not stated) [PRIMA-1MET] + C[C@@H](Oc1cc(-c2cnn(C3CCNCC3)c2)cnc1N)c1c(Cl)ccc(F)c1Cl [Crizotinib] (partner 1 µM)
Given back: 0.782

----------
tested on: HARA; experiment: relative viability (nuclei count vs DMSO), 5 days (fraction); higher = more cells survive; details: first compound 0.253 µM
Returns: string. Value is T if measured relative viability is below 0.7, and F if it is greater than or equal to it.

Asked: relative viability under 0.7? Item: O=c1cc(-c2cccc3c2Sc2ccccc2S3)oc(N2CCOCC2)c1 + Nc1ncn([C@H]2C[C@H](O)[C@@H](CO)O2)c(=O)n1 [Decitabine] (partner 2 µM)
Given back: T

Asked: Same thing, different compound: O=c1cc(-c2cccc3c2Sc2ccccc2S3)oc(N2CCOCC2)c1 + CC(=O)c1c(C)c2cnc(Nc3ccc(N4CCNCC4)cn3)nc2n(C2CCCC2)c1=O [Palbociclib] (partner 0.5 µM)
Given back: T

Asked: Do the same for COc1nc(C)cnc1NS(=O)(=O)c1cccnc1-c1ccc(-c2nnco2)cc1 [Zibotentan] + Cc1nc(NC(=O)N2CCC[C@H]2C(N)=O)sc1-c1ccnc(C(C)(C)C(F)(F)F)c1 [Alpelisib] (partner 2 µM) please
Given back: F

Asked: Now consider COc1nc(C)cnc1NS(=O)(=O)c1cccnc1-c1ccc(-c2nnco2)cc1 [Zibotentan] + COc1cc2c(Oc3ccc(NC(=O)C4(C(=O)Nc5ccc(F)cc5)CC4)cc3F)ccnc2cc1OCCCN1CCOCC1 [Foretinib] (partner 0.25 µM) .
Given back: F

Asked: Would you mind doing O=c1cc(-c2cccc3c2Sc2ccccc2S3)oc(N2CCOCC2)c1 + COc1cc2c(Oc3ccc(NC(=O)C4(C(=O)Nc5ccc(F)cc5)CC4)cc3F)ccnc2cc1OCCCN1CCOCC1 [Foretinib] (partner 0.25 µM) as well?
Given back: F

Asked: Next compound: O=c1cc(-c2cccc3c2Sc2ccccc2S3)oc(N2CCOCC2)c1 + Nc1nc2[nH]cc(CCc3ccc(C(=O)N[C@@H](CCC(=O)O)C(=O)O)cc3)c2c(=O)[nH]1 [Pemetrexed] (partner 0.2 µM)
Given back: T

Asked: Continue with COc1nc(C)cnc1NS(=O)(=O)c1cccnc1-c1ccc(-c2nnco2)cc1 [Zibotentan] + CC1(C)CCC(c2ccc(Cl)cc2)=C(CN2CCN(c3ccc(C(=O)NS(=O)(=O)c4ccc(N[C@H](CCN5CCOCC5)CSc5ccccc5)c(S(=O)(=O)C(F)(F)F)c4)cc3)CC2)C1 [Navitoclax] (partner 0.5 µM)
Given back: F

Asked: Proceed to COc1nc(C)cnc1NS(=O)(=O)c1cccnc1-c1ccc(-c2nnco2)cc1 [Zibotentan] + C[C@@H](Oc1cc(-c2cnn(C3CCNCC3)c2)cnc1N)c1c(Cl)ccc(F)c1Cl [Crizotinib] (partner 1 µM)
Given back: F

----------
test system: EBC-1; assay: relative viability (nuclei count vs DMSO), 5 days (fraction); higher = more cells survive; conditions: first compound 6.325 µM
Field: relative viability. Provide a value for each of the molecules that follow.
Please give the numeric answer without any surrounding text.

Asked: Which relative viability is reported for this molecule? COCC1(CO)C(=O)C2CCN1CC2 (centres undefined) [PRIMA-1MET] + CS(=O)(=O)N1CCN(Cc2cc3nc(-c4cccc5[nH]ncc45)nc(N4CCOCC4)c3s2)CC1 [Pictilisib] (partner 1 µM)
Given back: 0.434

Asked: Same again, this time with COCC1(CO)C(=O)C2CCN1CC2 (centres undefined) [PRIMA-1MET] + CC1(C)CCC(c2ccc(Cl)cc2)=C(CN2CCN(c3ccc(C(=O)NS(=O)(=O)c4ccc(N[C@H](CCN5CCOCC5)CSc5ccccc5)c(S(=O)(=O)C(F)(F)F)c4)cc3)CC2)C1 [Navitoclax] (partner 0.5 µM)
Given back: 0.416

Asked: Thanks! And COCC1(CO)C(=O)C2CCN1CC2 (centres undefined) [PRIMA-1MET] + Cc1nc(NC(=O)N2CCC[C@H]2C(N)=O)sc1-c1ccnc(C(C)(C)C(F)(F)F)c1 [Alpelisib] (partner 2 µM) ?
Given back: 0.757

Asked: Also need COCC1(CO)C(=O)C2CCN1CC2 (centres undefined) [PRIMA-1MET] + O=C(c1cc(Cc2n[nH]c(=O)c3ccccc23)ccc1F)N1CCN(C(=O)C2CC2)CC1 [Olaparib] (partner 8 µM) , thanks.
Given back: 0.828

----------
test system: A549; experiment: relative viability (nuclei count vs DMSO), 5 days (fraction); higher = more cells survive; details: first compound 20 µM
attributeMeasured: relative viability
Just the number, please, no unit attached.

Asked: So what does the record say about relative viability for COCC1(CO)C(=O)C2CCN1CC2 (centres undefined) [PRIMA-1MET] + C[C@@H](Oc1cc(-c2cnn(C3CCNCC3)c2)cnc1N)c1c(Cl)ccc(F)c1Cl [Crizotinib] (partner 1 µM) ?
Given back: 0.746

Asked: Request: COCC1(CO)C(=O)C2CCN1CC2 (centres undefined) [PRIMA-1MET] + CS(=O)(=O)CCNCc1ccc(-c2ccc3ncnc(Nc4ccc(OCc5cccc(F)c5)c(Cl)c4)c3c2)o1 [Lapatinib] (partner 2 µM)
Given back: 0.943

Asked: Now consider COCC1(CO)C(=O)C2CCN1CC2 (centres undefined) [PRIMA-1MET] + N=C(N)NC(=N)NCCc1ccccc1 [Phenformin] (partner 250 µM) .
Given back: 0.0121

Asked: And then COCC1(CO)C(=O)C2CCN1CC2 (centres undefined) [PRIMA-1MET] + CC1(C)CCC(c2ccc(Cl)cc2)=C(CN2CCN(c3ccc(C(=O)NS(=O)(=O)c4ccc(N[C@H](CCN5CCOCC5)CSc5ccccc5)c(S(=O)(=O)C(F)(F)F)c4)cc3)CC2)C1 [Navitoclax] (partner 0.5 µM) , what is it?
Given back: 1.08

----------
test system: NCI-H2009; test: relative viability (nuclei count vs DMSO), 5 days (fraction); higher = more cells survive; conditions: first compound 20 µM
Provide the recorded relative viability for the entries that follow.
Would you mind answering with just the numeric figure?

Asked: Data request, read-out relative viability, for COCC1(CO)C(=O)C2CCN1CC2 (stereo not given) [PRIMA-1MET] + CC1(C)CCC(c2ccc(Cl)cc2)=C(CN2CCN(c3ccc(C(=O)NS(=O)(=O)c4ccc(N[C@H](CCN5CCOCC5)CSc5ccccc5)c(S(=O)(=O)C(F)(F)F)c4)cc3)CC2)C1 [Navitoclax] (partner 0.5 µM)
Given back: 0.302

Asked: Same thing, different compound: COCC1(CO)C(=O)C2CCN1CC2 (stereo not given) [PRIMA-1MET] + CC(C)C[C@H](NC(=O)[C@H](Cc1ccccc1)NC(=O)c1cnccn1)B(O)O [Bortezomib] (partner 0.002 µM)
Given back: 0.0124

Asked: Subsequent entry: COCC1(CO)C(=O)C2CCN1CC2 (stereo not given) [PRIMA-1MET] + Nc1nc2[nH]cc(CCc3ccc(C(=O)N[C@@H](CCC(=O)O)C(=O)O)cc3)c2c(=O)[nH]1 [Pemetrexed] (partner 0.2 µM)
Given back: 0.435

Asked: Check COCC1(CO)C(=O)C2CCN1CC2 (stereo not given) [PRIMA-1MET] + CC(=O)Nc1cccc(-n2c(=O)n(C3CC3)c(=O)c3c(Nc4ccc(I)cc4F)n(C)c(=O)c(C)c32)c1 [Trametinib] (partner 0.02 µM) too.
Given back: 0.0028

Asked: Follow-up entry: COCC1(CO)C(=O)C2CCN1CC2 (stereo not given) [PRIMA-1MET] + Cc1cc(Nc2cc(N3CCN(C)CC3)nc(Sc3ccc(NC(=O)C4CC4)cc3)n2)n[nH]1 [Tozasertib] (partner 0.1 µM)
Given back: 0.0462
